Study System: T1, human OT7T175 (metastin receptor) (human, UniProt Q969F8 1-398)
T1 construct: expressed on CHO cells (hOT7T175-expressed CHO cells; hOT7T175/CHO); also called hOT7T175; h0T7T175
T1 sequence (Q969F8 whole entry L364H): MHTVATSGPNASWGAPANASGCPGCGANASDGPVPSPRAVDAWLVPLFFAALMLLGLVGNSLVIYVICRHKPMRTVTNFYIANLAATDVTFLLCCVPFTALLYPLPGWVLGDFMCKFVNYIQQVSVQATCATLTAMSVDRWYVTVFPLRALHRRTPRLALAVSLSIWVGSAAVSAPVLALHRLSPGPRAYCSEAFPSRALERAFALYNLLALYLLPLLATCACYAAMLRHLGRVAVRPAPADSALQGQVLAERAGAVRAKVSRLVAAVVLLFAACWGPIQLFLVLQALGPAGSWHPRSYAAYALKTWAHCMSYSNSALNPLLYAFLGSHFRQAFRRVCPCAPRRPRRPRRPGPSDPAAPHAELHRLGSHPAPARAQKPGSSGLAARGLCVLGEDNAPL
Test Name: FMAT competition with Cy-5-labeled metastin (40-54), hOT7T175-expressed CHO cells
Square brackets hold non-standard residues; d marks the D form. Ends that are not written are not given here. Arg(Me) = CNC(=N)NCCC[C@H](N)C(=O)O
Metric: IC50 (nM)
Give the value in nM but do not write nM after it.

Check out these entries, answers already filled in.
Binder	Unit Tag	IC50
[dY]NVNSFGL[Arg(Me)]F-NH2 (N-terminus assumed; SMILES CNC(=N)NCCC[C@H](NC(=O)[C@H](CC(C)C)NC(=O)CNC(=O)[C@H](Cc1ccccc1)NC(=O)[C@H](CO)NC(=O)[C@H](CC(N)=O)NC(=O)[C@@H](NC(=O)[C@H](CC(N)=O)NC(=O)[C@H](N)Cc1ccc(O)cc1)C(C)C)C(=O)N[C@@H](Cc1ccccc1)C(N)=O) [Compound No. 229: [D-Tyr1,Val3,Arg(Me)9]MS10]	nM	130
[dY]N[dW]NSFGL[Arg(Me)]F-NH2 [Compound No. 142: [D-Tyr1,D-Trp3,Arg(Me)9]MS10]	nM	26

Switching to the query record.
Task: Which IC50 value is on record for YNDNSFGLRF-NH2 [Compound No. 70: [Asp3]MS10] ?
Output: 200
